Target: GDP-bound KRAS wild-type protein (Homo sapiens, UniProt P01116)
Sequence (P01116 whole entry): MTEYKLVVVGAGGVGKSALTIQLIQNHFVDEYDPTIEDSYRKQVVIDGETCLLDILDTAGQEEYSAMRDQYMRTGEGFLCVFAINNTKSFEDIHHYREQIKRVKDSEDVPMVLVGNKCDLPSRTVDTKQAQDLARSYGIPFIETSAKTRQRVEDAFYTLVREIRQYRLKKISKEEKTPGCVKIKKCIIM
Test: Binding to KRAS by surface plasmon resonance (SPR), Single Cycle Kinetics
Conditions: SPR Single Cycle Kinetics, GDP-bound KRAS wild-type protein, 1:1 binding model; read-out: KRAS KD
*1 amine or outer side, *2 acyl side, *3 side chain or, on linkers, in order; H or OH if unused. Where a SMILES comes first, the peptide text is derived from it. Bridges are numbered along the chain shown (N, C = ends). [ ]: non-standard residue; d: D form. The star is where a group is joined. hPhe(3,5-F2-4-CF3) = N[C@@H](CCc1cc(F)c(C(F)(F)F)c(F)c1)C(=O)O; hPhe(3-Cl-4-CF3) = N[C@@H](CCc1ccc(C(F)(F)F)c(Cl)c1)C(=O)O; NPrPhe(4-CF3) = CCCN[C@@H](Cc1ccc(C(F)(F)F)cc1)C(=O)O; X43 = CCCN([C@@H](Cc1ccccc1)C(=O)[*:2])[*:1]; NMeGly(cPent) = CN[C@H](C(=O)O)C1CCCC1; Ac4c(3,3-F2) = NC1(C(=O)O)CC(F)(F)C1; NMeD = CN[C@@H](CC(=O)O)C(=O)O; NMeL = CN[C@@H](CC(C)C)C(=O)O; Morpholide = C1CN(*)CCO1; Ac5c = NC1(C(=O)O)CCCC1; Aze = O=C(O)[C@@H]1CCN1; Sar = CNCC(=O)O
Parameter Measured: Kd (nM)
# number only, unit nM dropped from output

Some solved cases for reference:
Compound	Tested Target	Kd / nM
CCO[C@@H]1C[C@H]2C(=O)NC3(CCC(F)(F)CC3)C(=O)N(C)[C@@H](C3CCCC3)C(=O)N(C)[C@H](C(=O)N(C)C)CC(=O)N(C)[C@@H](C)C(=O)N[C@@H]([C@@H](C)CC)C(=O)N(C)CC(=O)N(C)[C@H]3CCCCCN(C3=O)[C@@H](Cc3ccc(C(F)(F)F)cc3)C(=O)N(C)CC(=O)N[C@@H](CCc3cc(F)c(C(F)(F)F)c(F)c3)C(=O)N2C1	GDP-bound KRAS wild-type protein (Homo sapiens, UniProt P01116)	5
CCCN1C(=O)[C@@H]2CCN2C(=O)CN(C)C(=O)[C@H]([C@@H](C)CC)NC(=O)[C@H](CC(C)C)N(C)C(=O)C[C@@H](C(=O)N2CCOCC2)N(C)C(=O)[C@H](C2CCCC2)N(C)C(=O)C2(CC(F)(F)C2)NC(=O)[C@@H]2CCCN2C(=O)[C@H](CCc2cc(F)c(C(F)(F)F)c(F)c2)NC(=O)CN(C)C(=O)[C@@H]1Cc1ccc(C(F)(F)F)cc1 [PP0802] ([NMeL]I[Sar][Aze][NPrPhe(4-CF3)][Sar][hPhe(3,5-F2-4-CF3)]P[Ac4c(3,3-F2)][NMeGly(cPent)][NMeD]-Morpholide; lactam N-11)	GDP-bound KRAS wild-type protein (Homo sapiens, UniProt P01116)	0.082
CCO[C@@H]1C[C@H]2C(=O)NC3(CC(C)(C)C3)C(=O)N(C)[C@@H](C3CCCC3)C(=O)N(C)[C@H](C(=O)N(C)CC)CC(=O)N(C)[C@@H](CC)C(=O)N[C@@H]([C@@H](C)CC)C(=O)N(C)CC(=O)N(C)[C@H]3C/C=C\CCN(C3=O)[C@@H](Cc3ccc(C(F)(F)F)cc3)C(=O)N(C)CC(=O)N[C@@H](CCc3ccc(C(F)(F)F)c(Cl)c3)C(=O)N2C1	GDP-bound KRAS wild-type protein (Homo sapiens, UniProt P01116)	0.13
CC(C)C[C@H]1C(=O)N[C@@H](C2CCC2)C(=O)N(C)CC(=O)N(C)[C@H]2CCCCN(C2=O)[C@@H](Cc2ccc(C(F)(F)F)cc2)C(=O)N(C)CC(=O)N[C@@H](CCc2cc(F)c(C(F)(F)F)c(F)c2)C(=O)N2CCC[C@H]2C(=O)NC2(CCCC2)C(=O)N(C)[C@@H](C2CCCC2)C(=O)N(C)[C@H](C(=O)N2CCOCC2)CC(=O)N1C	GDP-bound KRAS wild-type protein (Homo sapiens, UniProt P01116)	0.1

Attention now shifts to the item below.
Entry under test: CCCN1C(=O)CN(C)C(=O)CN(C)C(=O)[C@H]([C@@H](C)CC)NC(=O)[C@H](CC(C)C)N(C)C(=O)C[C@@H](C(=O)N2CCOCC2)N(C)C(=O)[C@H](C2CCCC2)N(C)C(=O)C2(CCCC2)NC(=O)[C@@H]2CCCN2C(=O)[C@H](CCc2ccc(C(F)(F)F)c(Cl)c2)NC(=O)CN(C)C(=O)[C@@H]1Cc1ccccc1 [PP0211] ([NMeL]I[Sar][Sar][X43][Sar][hPhe(3-Cl-4-CF3)]P[Ac5c][NMeGly(cPent)][NMeD]-Morpholide; lactam N-11) . Its Kd was 0.27
